B1: POMT2 (parent)
chain: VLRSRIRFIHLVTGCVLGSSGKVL

- Variants of: B1
- protocol: protein stability index of a GFP-peptide fusion (GPS, HEK-293T) (PSI 1-6); higher = more stable;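 note: lentivirally expressed fusions sorted by FACS into six bins by GFP to DsRed ratio, PSI derived from sequencing read proportions per bin multiplied by bin number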
- details: c terminus: a fixed tail appended
Think of 2 as a floor: if protein stability index stands on it or above, it is condition met; beneath it, condition not met.

variant-identifier: L11N
assigned-class: condition met
--
variant-identifier: G18A
assigned-class: condition met
--
variant-identifier: L11T
assigned-class: condition met
--
variant-identifier: L17M
assigned-class: condition met
--
variant-identifier: V16F
assigned-class: condition not met
--
variant-identifier: G14S
assigned-class: condition met
--
variant-identifier: S4Q
assigned-class: condition met
--
variant-identifier: V12E
assigned-class: condition met
--
variant-identifier: L11Q
assigned-class: condition met
--
variant-identifier: V23R
assigned-class: condition not met
--
variant-identifier: V1E
assigned-class: condition met
--
variant-identifier: F8P
assigned-class: condition not met
--
variant-identifier: R5P
assigned-class: condition met
--
variant-identifier: L2A
assigned-class: condition met
--
variant-identifier: L24D
assigned-class: condition met
--
variant-identifier: R7L
assigned-class: condition met
--
variant-identifier: C15T
assigned-class: condition not met
--
variant-identifier: R7P
assigned-class: condition met
--
variant-identifier: I9N
assigned-class: condition met
--
variant-identifier: T13I
assigned-class: condition met
--
variant-identifier: T13K
assigned-class: condition met
